- TARGET_ENTITY: T1, IL-23 (HEK293E-derived) (human, UniProt P29460 23-328; Q9NPF7 20-189)
- T1 sequence 1: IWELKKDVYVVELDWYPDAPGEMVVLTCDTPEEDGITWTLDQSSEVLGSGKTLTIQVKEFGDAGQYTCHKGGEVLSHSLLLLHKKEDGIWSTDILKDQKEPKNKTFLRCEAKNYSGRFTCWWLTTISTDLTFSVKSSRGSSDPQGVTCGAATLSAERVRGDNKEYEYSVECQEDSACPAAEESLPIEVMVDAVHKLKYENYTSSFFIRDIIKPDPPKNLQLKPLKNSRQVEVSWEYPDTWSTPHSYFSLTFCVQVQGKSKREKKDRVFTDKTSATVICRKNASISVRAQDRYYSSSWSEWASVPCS
- T1 sequence 2: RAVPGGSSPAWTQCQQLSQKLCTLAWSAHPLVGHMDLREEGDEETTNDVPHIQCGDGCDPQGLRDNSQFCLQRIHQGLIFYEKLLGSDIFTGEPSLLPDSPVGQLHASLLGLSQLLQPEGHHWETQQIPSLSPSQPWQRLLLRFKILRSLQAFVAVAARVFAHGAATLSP
- EXPERIMENT_SUMMARY: SPR (Biacore), antibody supernatant captured on Protein A, IL-23 at 5 ug/ml as analyte
# reported koff; entries follow
Unit s⁻¹ implied. Number only.

See these solved cases before continuing.
Prompt: Data request, read-out koff, for 18-4 (antibody, human IgG1, kappa, V domains shown, Humanized form of E11E7; also called humanized antibody 18-4) VH: EVQLQQWGAGLLKPSETLSLTCAVYGGSFSSYNVHWIRQPPGKGLEWIGVIWTGGSTDYNSVLKSRVTISVDTSKNQFSLKLSSVTAADTAVYYCARDKYGLFPGYFDYWGQGTLVTVSS VL: EIVLTQSPATLSLSPGERATLSCKPSQSLLSSGNRKNYLAWYQQKPGQAPRLLIYYASTRQSGIPDRFSGSGSGTDFTLTISRLEPEDFAVYYCLQHFNYPWTFGGGTKVEIKR
Response: 0.00133

Prompt: Consider the binder 11-23 (antibody, human IgG1, kappa, V domains shown, Humanized form of E11E7; also called humanized antibody 11-23) VH: QVQLQESGPGLVKPSETLSLTCTVSGGSISSYNVHWIRQPPGKGLEWIGVIWTGGSTDYNPSLKSRVTISRDTSKNQFSLKLSSVTAADTAVYYCARDKYGLFPGYFDYWGQGTLVTVSS VL: DIVMTQTPLSLPVTPGEPASISCKPSQSLLSSGNRKNYLAWYLQKPGQSPQLLIYYASTRQSGVPDRFSGSGSGTDFTLKISRVEAEDVGVYYCLQHFNYPWTFGQGTKLEIKR and give its measured koff.
Response: 0.00462

Turning to the following binder.
Prompt: I am curious: what koff value has been reported for 13-12 (antibody, human IgG1, kappa, V domains shown, Humanized form of E11E7; also called humanized antibody 13-12) VH: QVQLQESGPGLVKPSQTLSLTCTVSGFSLISYNVHWIRQPPGKGLEWIGVIWTGGSTDYNSVLKSRVTMSVDTSKNQFSLKVNSVTAADTAVYYCARDKYGLFPGYFDYWGQGTLVTVSS VL: EIVMTQSPATLSLSPGERATLSCKPSQSLLSSGNRKNYLAWYQQKPGQAPRLLIYYASTRQSGIPARFSGSGSGTDFTLTISSLEPEDFAVYYCLQHFNYPWTFGGGTKAEIKR ?
Response: 0.000855
